# TARGET SYSTEM: hERG1a (human ether-à-go-go-related gene type 1, Kv11.1) (Homo sapiens, UniProt Q12809)
# Construct: gene KCNH2; EC50 on split hERG1a (residues 1–545 VSD module + residues 546–1,159 pore module, coexpressed)
# Sequence (Q12809 546-1159): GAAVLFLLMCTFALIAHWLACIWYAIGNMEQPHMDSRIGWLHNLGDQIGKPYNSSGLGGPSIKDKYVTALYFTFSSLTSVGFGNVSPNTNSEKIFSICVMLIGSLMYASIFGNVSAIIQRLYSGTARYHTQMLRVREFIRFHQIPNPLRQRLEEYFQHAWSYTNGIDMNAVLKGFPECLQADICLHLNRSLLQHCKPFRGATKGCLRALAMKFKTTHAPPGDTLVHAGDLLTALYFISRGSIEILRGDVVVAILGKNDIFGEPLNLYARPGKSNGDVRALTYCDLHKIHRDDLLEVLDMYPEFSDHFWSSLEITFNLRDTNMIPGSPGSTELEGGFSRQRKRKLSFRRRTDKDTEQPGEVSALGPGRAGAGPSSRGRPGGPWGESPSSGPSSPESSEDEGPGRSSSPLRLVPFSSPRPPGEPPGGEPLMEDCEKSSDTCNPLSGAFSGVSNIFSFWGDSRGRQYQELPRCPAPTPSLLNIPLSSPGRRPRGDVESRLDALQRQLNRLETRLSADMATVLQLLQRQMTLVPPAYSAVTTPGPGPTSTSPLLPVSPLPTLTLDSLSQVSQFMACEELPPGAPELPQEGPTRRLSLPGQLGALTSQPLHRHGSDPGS
# Sequence (Q12809 1-545 partner): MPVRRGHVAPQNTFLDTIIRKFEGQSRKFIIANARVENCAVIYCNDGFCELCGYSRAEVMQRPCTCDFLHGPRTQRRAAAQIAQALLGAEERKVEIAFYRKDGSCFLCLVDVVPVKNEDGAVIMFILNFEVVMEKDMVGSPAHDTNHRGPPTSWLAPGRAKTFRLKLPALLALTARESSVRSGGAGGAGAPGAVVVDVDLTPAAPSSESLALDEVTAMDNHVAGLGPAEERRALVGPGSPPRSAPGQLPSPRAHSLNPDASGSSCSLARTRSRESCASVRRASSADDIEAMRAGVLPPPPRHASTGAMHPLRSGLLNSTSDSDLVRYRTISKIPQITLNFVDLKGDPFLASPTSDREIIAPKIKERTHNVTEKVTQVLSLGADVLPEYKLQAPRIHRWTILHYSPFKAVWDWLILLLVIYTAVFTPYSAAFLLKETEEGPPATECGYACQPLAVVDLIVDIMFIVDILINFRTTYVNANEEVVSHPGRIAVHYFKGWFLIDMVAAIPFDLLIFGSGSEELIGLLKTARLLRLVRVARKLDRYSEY
# TEST DESCRIPTION: two-electrode voltage clamp of channels expressed in Xenopus oocytes (slowing of deactivation)
# Format: cell-based
MEASURED ENDPOINT: pEC50
Numbers only, as −log10 of the molar value.

Task: Look up pEC50: COc1ccc2nccc(C(=O)CC[C@@H]3CCN(CC#Cc4cc(F)cc(F)c4F)C[C@@H]3C(=O)O)c2c1 [RPR]
Output: 5.10
